Experiment: MRP1 drug-resistance reversers in H69AR cells – cell-based, doxorubicin co-treatment, pilot screen (AID 601)
Settings: H69AR cells + 2 uM doxorubicin, CellTiter-Glo, 72 h; measured here: viability with 2 uM doxorubicin; at 10 µM; stronger effect = lower value
viability strictly less than 90% = Criterion met. Otherwise Criterion not met.

molecule=COc1ccc(OC)c(C(=O)c2ccc(C(=O)O)cc2)c1 assigned_label="Criterion not met"
molecule=Cc1ccc2nc(NC(=O)Cn3cc4c(n3)CCCCC4)sc2c1 assigned_label="Criterion not met"
molecule=CCCc1cc(C(=O)Nc2sc3c(c2C#N)CCC3)no1 assigned_label="Criterion met"
molecule=Cc1cc2ccccc2n1CCNC(=O)C1CC1 assigned_label="Criterion not met"
molecule="COc1ccc(S(=O)(=O)N2Cc3ccccc3CC2C(=O)Nc2ccc(O)cc2)cc1OC (stereo unspecified)" assigned_label="Criterion met"
molecule=C=CCOC(=O)COc1ccc2c(C)c(C)c(=O)oc2c1C assigned_label="Criterion not met"
molecule=CCn1c(C(=O)N2CCC(C(=O)N3CCN(c4ccccn4)CC3)CC2)cc2sccc21 assigned_label="Criterion met"
molecule="Cc1nc2ccc(S(=O)(=O)NC(C(=O)N3CCCC3)C(C)C)cc2s1 (stereo unspecified)" assigned_label="Criterion met"
molecule=COc1ccc(CNc2oc(-c3ccccc3)nc2C#N)cc1 assigned_label="Criterion not met"
molecule=CCOc1ccc(NC(=O)CSc2nnc(COc3c(C)cccc3C)o2)cc1 assigned_label="Criterion met"

---

Experiment: growth suppression of yeast trafficking mutant, preliminary HTS, modulators of trafficking downstream of Golgi apparatus project, 1536-format plate, OD 615 nm (AID 637)
Conditions: yeast transport mutant growth, absorbance 615 nm, 18 h; stronger effect = higher value
measure.name: inhibition (%)

compound=CCCN(CCC)C(=O)c1c(C)[nH]c(C(=O)OCC)c1C unit_abbreviation=% reported_result=-2.33
compound="CCOC(=O)c1cc2c(=O)n3ccccc3nc2n(CC2CCCO2)c1=NC(C)=O (configuration not stated)" unit_abbreviation=% reported_result=-2.22
compound=CCOC(=O)N1CCN(C(=O)COc2ccc(S(=O)(=O)NC(C)C)cc2)CC1 unit_abbreviation=% reported_result=2.33
compound=Cc1ccccc1-n1c(Cn2c(=O)sc3ccccc32)nnc1SCC(=O)N1CCCC1 unit_abbreviation=% reported_result=6.89
compound=O=C(Nc1nncs1)c1ccccc1NS(=O)(=O)c1cccs1 unit_abbreviation=% reported_result=-11.2
compound=COCCN1C=C(C(=O)OC)C(c2cc3c(cc2Br)OCO3)C(C(=O)OC)=C1 unit_abbreviation=% reported_result=-1.09
compound=O=C(Oc1ccc2ccc(OC(=O)N3CCOCC3)cc2c1)N1CCOCC1 unit_abbreviation=% reported_result=-2.5
compound=Cc1n[nH]c(C)c1N1C(=O)c2cccc3cc(Br)cc(c23)C1=O unit_abbreviation=% reported_result=-4
compound=CCOC(=O)c1cc(NC(=O)SCC(=O)O)c(C)nc1C unit_abbreviation=% reported_result=-1.64
compound=Cc1oc(-c2cccc(Cl)c2)nc1CN1CCC(C(=O)N2CCN(c3ccccc3F)CC2)CC1 unit_abbreviation=% reported_result=-3.28
compound="COC(=O)C1=C(N)OC2=C(C(=O)CCC2)C1c1cccs1 (configuration not stated)" unit_abbreviation=% reported_result=4.1
compound=CSc1cccc(NC(=O)C2CCN(S(=O)(=O)c3ccc(F)cc3)CC2)c1 unit_abbreviation=% reported_result=-6.23
compound=O=C(CN1CCN(Cc2ccccc2F)C1=O)NCc1cccnc1 unit_abbreviation=% reported_result=-1.97
compound=O=C(c1cc(C2CC2)on1)N1CCN(C(c2ccccc2)c2ccccc2)CC1 unit_abbreviation=% reported_result=-0.83
compound=C=CCn1c(SCc2cccc(C#N)c2)nnc1-c1ccccc1O unit_abbreviation=% reported_result=-1.5
compound="COC(=O)C(C)Sc1nnc2n(-c3cccc(C)c3)c(=O)c3c4c(sc3n12)CCCC4 (configuration not stated)" unit_abbreviation=% reported_result=2
compound=COc1cc(-c2nc(-c3ccncc3)no2)cc(OC)c1OC unit_abbreviation=% reported_result=-2.18
compound=CCCCNC(=O)Nc1ccnn1C1CCCCC1 unit_abbreviation=% reported_result=7.14
compound=Clc1c(CSc2nc3ccccc3o2)nc2sccn12 unit_abbreviation=% reported_result=2.95
compound=Clc1ss/c(=N\c2ccccn2)c1Cl unit_abbreviation=% reported_result=2.06
compound=CCN1CCN(CCCNC(=O)c2cc3sccc3n2CC)CC1 unit_abbreviation=% reported_result=3
compound="CC1Cc2nc(SCC(=O)N3CCCc4ccccc43)n(C)c(=O)c2S1 (configuration not stated)" unit_abbreviation=% reported_result=0.33
compound="O=C(CN1CCN(Cc2ccccc2)CC1)NCC1COc2ccccc2O1 (configuration not stated)" unit_abbreviation=% reported_result=-4.73
compound=O=C(O)c1ccc2c(c1)C(=O)N(c1ccc(Cl)cn1)C2=O unit_abbreviation=% reported_result=0.33
compound=Cc1cc(C)n(-c2cc(N3CCOCC3)ncn2)n1 unit_abbreviation=% reported_result=3.67
compound=CCN1CCN(c2nc(C)nc3c2sc(=S)n3C)CC1 unit_abbreviation=% reported_result=0.5
compound=CC(C)(C)NC(=O)CSc1nnc(-c2ccccn2)n1-c1ccccc1 unit_abbreviation=% reported_result=-3
compound=O=C(NCCc1c[nH]c2ccccc12)c1cnc2n(c1=O)CCS2 unit_abbreviation=% reported_result=1.8
compound=CC(C)NC(=O)c1ccc2c(c1)nnn2C unit_abbreviation=% reported_result=-4.92
compound="O=C(CSc1nnc(Cn2c(=O)sc3ccccc32)n1-c1ccccc1)NCC1CCCO1 (configuration not stated)" unit_abbreviation=% reported_result=0.83
compound=O=C(c1cnc2n(c1=O)CCS2)N1CCc2ccccc21 unit_abbreviation=% reported_result=0.16
compound=COc1ccc(-n2c(Cc3cccn3C)nnc2SCC(=O)Nc2ccc(Cl)cc2)cc1 unit_abbreviation=% reported_result=2
compound="CCOC(=O)C1=C(C)NC(=O)NC1c1ccc(OCCO)c(OC)c1 (configuration not stated)" unit_abbreviation=% reported_result=-2.3
compound=c1ccc(N2CCN(Cc3cn4cccnc4n3)CC2)cc1 unit_abbreviation=% reported_result=-6.07
compound=COc1c(S(=O)(=O)n2nc(C)cc2C)ccc(Cl)c1Cl unit_abbreviation=% reported_result=2.33
compound=CC1(C)CC(=O)C=C(Nc2ccc(OCC(F)(F)C(F)F)cc2)C1 unit_abbreviation=% reported_result=-12.3
compound=CN1CCN(C(=O)c2ccc(CS(=O)(=O)c3c(Cl)cccc3Cl)o2)CC1 unit_abbreviation=% reported_result=-2.46
